# EXPERIMENT_SUMMARY: Passive apparent permeability in MDCK cells
# Format: ADME, cell-based, Canis lupus familiaris
# MEASUREMENT_CONTEXT: dog
MEASUREMENT_LABEL: Papp (×10⁻⁶ cm/s)
# output: bare number, implied unit ×10⁻⁶ cm/s

query: Give the reported value of Papp for this record: "CN1C(=O)[C@@H]2CN(S(=O)(=O)c3ccc4ocnc4c3)C[C@@H]2c2cnccc21"
result: 25

query: Give the reported value of Papp for this record: "CN1C(=O)[C@@H]2CN(S(=O)(=O)c3ccc4c(c3)OCO4)C[C@@H]2c2ncccc21"
result: 45

query: Give the reported value of Papp for this record: "CN1C(=O)[C@H]2CN(S(=O)(=O)c3ccc4c(c3)OCO4)C[C@H]2c2cnccc21"
result: 14

query: Give the reported value of Papp for this record: "CN1C(=O)[C@@H]2CN(S(=O)(=O)c3ccc(F)c(Cl)c3)C[C@@H]2c2cnccc21"
result: 49

query: Give the reported value of Papp for this record: "CN1C(=O)[C@@H]2CN(S(=O)(=O)c3ccc4scnc4c3)C[C@@H]2c2cnccc21"
result: 48

query: Give the reported value of Papp for this record: "C[C@H]1[C@H]2C(=O)N(C)c3ccncc3[C@H]2CN1S(=O)(=O)c1ccc2c(c1)OCO2"
result: 43.1
